# System: Escherichia coli
# Assay Comment: Antibacterial activity against Escherichia coli ATCC 25922 after 20 hrs by broth microdilution method
# Type: functional
# Particulars: ATCC 25922, 20 h
Property Label: MIC (µg/mL)

> print(dat)
                                smiles.repr  result
1  COc1cccc(N[C@H]2[C@H](N)[C@@](NC(=O)N(C)C)([C@H](C)O)[C@@](C)(O)[C@@]2(O)CO)c1      64

I. C[C@H](O)[C@]1(NC(=O)N(C)C)[C@@H](N)[C@H](Nc2cccc(C(F)(F)F)c2)[C@](O)(CO)[C@]1(C)O
II. C[C@H](O)[C@]1(NC(=O)N(C)C)[C@@H](N)[C@H](Nc2cccc(F)c2)[C@](O)(CO)[C@]1(C)O
III. CC(=O)c1cccc(N[C@H]2[C@H](N)[C@@](NC(=O)N3CCCC3)([C@H](C)O)[C@@](C)(O)[C@@]2(O)CO)c1
Input line: Ascending by MIC, please: list the compounds accordingly. Enter labels, ranked according to the request.
Output line: II, I, III

###

# Test system: Klebsiella pneumoniae
# Assay Comment: Antibacterial activity against Klebsiella pneumoniae ATCC 700603 after 20 hrs by broth microdilution method
# Format: functional
# Particulars: ATCC 700603, 20 h
Property Label: MIC (mg/L)

> print(dat)
                                smiles.repr  result
1  C[C@H](O)[C@]1(NC(=O)N(C)C)[C@@H](N)[C@H](Nc2cccc(F)c2)[C@](O)(CO)[C@]1(C)O      32
2  CC(=O)c1cccc(N[C@H]2[C@H](N)[C@@](NC(=O)N(C)C)([C@H](C)O)[C@@](C)(O)[C@@]2(O)COC(=O)c2c(C)cccc2O)c1      32

###

# Tested on: Plasmodium falciparum
# Assay Comment: Antimalarial activity against Plasmodium falciparum Dd2 after 72 hrs by SYBR Green-based fluorescence assay
# Format: functional, organism-based
# Particulars: Dd2, 72 h
Property Label: IC50 (nM)

// known answers, use as guide
> print(dat)
                                smiles.repr  property.label  value.units  result
1  C[C@H](O)[C@]1(NC(=O)N(C)C)[C@@H](N)[C@H](Nc2cccc(F)c2)[C@](O)(CO)[C@]1(C)O            IC50           nM     7.4
2  COc1cccc(N[C@H]2[C@H](N)[C@@](NC(=O)N(C)C)([C@H](C)O)[C@@](C)(O)[C@@]2(O)CO)c1            IC50           nM    11.5

a. CC(=O)c1cccc(N[C@H]2[C@H](N)[C@@](NC(=O)N3CCCC3)([C@H](C)O)[C@@](C)(O)[C@@]2(O)CO)c1
b. C[C@H](O)[C@]1(NC(=O)N(C)C)[C@@H](N)[C@H](Nc2ccccc2)[C@](O)(CO)[C@]1(C)O
c. C[C@H](O)[C@]1(NC(=O)N(C)C)[C@@H](N)[C@H](Nc2cccc(C(F)(F)F)c2)[C@](O)(CO)[C@]1(C)O
d. CCN(CC)C(=O)N[C@@]1([C@H](C)O)[C@@H](N)[C@H](Nc2cccc(C(C)=O)c2)[C@](O)(CO)[C@]1(C)O
e. CC(=O)c1cccc(N[C@H]2[C@H](N)[C@@](NC(=O)N3CCCCC3)([C@H](C)O)[C@@](C)(O)[C@@]2(O)CO)c1
Input line: Ascending by IC50, please: list the compounds accordingly. Enter labels, ranked according to the request.
Output line: c, a, b, d, e

###

# Test system: Staphylococcus aureus
# Assay Comment: Antibacterial activity against Staphylococcus aureus ATCC 25923 after 20 hrs by broth microdilution method
# Assay type: functional
# Particulars: ATCC 25923, 20 h
Property Label: MIC (µg/mL)

A. CC(=O)c1cccc(N[C@H]2[C@H](N)[C@@](NC(=O)N3CCCC3)([C@H](C)O)[C@@](C)(O)[C@@]2(O)CO)c1
B. C[C@H](O)[C@]1(NC(=O)N(C)C)[C@@H](N)[C@H](Nc2cccc(C(F)(F)F)c2)[C@](O)(CO)[C@]1(C)O
Input line: Consider entries A and B . Which has the numerically lower MIC? Record your answer as the label of the chosen record.
Output line: B
(B: 2 µg/mL, A: 8 µg/mL)

###

# Tested on: HCT-116
# Assay Comment: Cytotoxicity against human HCT116 cells
# Assay type: functional, cell-based
Property Label: IC50 (nM)
Reply with just the number (in nM).

> print(dat)
                                   molecule  property.label  value.units  result
1  CC(=O)c1cccc(N[C@H]2[C@H](N)[C@@](NC(=O)N3CCCC3)([C@H](C)O)[C@@](C)(O)[C@@]2(O)CO)c1            IC50           nM      90
2  COc1cccc(N[C@H]2[C@H](N)[C@@](NC(=O)N(C)C)([C@H](C)O)[C@@](C)(O)[C@@]2(O)CO)c1            IC50           nM     390
3  C[C@H](O)[C@]1(NC(=O)N(C)C)[C@@H](N)[C@H](Nc2cccc(C(F)(F)F)c2)[C@](O)(CO)[C@]1(C)O            IC50           nM     100
4  CC(=O)c1cccc(N[C@H]2[C@H](N)[C@@](NC(=O)N(C)C)([C@H](C)O)[C@@](C)(O)[C@@]2(O)CO)c1            IC50           nM      70
5  C[C@H](O)[C@]1(NC(=O)N(C)C)[C@@H](N)[C@H](Nc2ccccc2)[C@](O)(CO)[C@]1(C)O            IC50           nM     810
6  CCN(CC)C(=O)N[C@@]1([C@H](C)O)[C@@H](N)[C@H](Nc2cccc(C(C)=O)c2)[C@](O)(CO)[C@]1(C)O            IC50           nM     230

Input line: Identify measured IC50 associated with CC(=O)c1cccc(N[C@H]2[C@H](N)[C@@](NC(=O)N(C)C)([C@H](C)O)[C@@](C)(O)[C@@]2(O)COC(=O)c2c(C)cccc2O)c1 [PACTAMYCIN]
Output line: 70

Input line: Identify measured IC50 associated with "C[C@H](O)[C@]1(NC(=O)N(C)C)[C@@H](N)[C@H](Nc2cccc(F)c2)[C@](O)(CO)[C@]1(C)O"
Output line: 190

###

# Tested on: Enterococcus faecalis
# Assay Comment: Antibacterial activity against Enterococcus faecalis ATCC 29212 after 20 hrs by broth microdilution method
# Type: functional
# Particulars: ATCC 29212, 20 h
Property Label: MIC (µg/mL)

> print(dat)
                                smiles.repr  result
1  CC(=O)c1cccc(N[C@H]2[C@H](N)[C@@](NC(=O)N3CCCC3)([C@H](C)O)[C@@](C)(O)[C@@]2(O)CO)c1     128

I. C[C@H](O)[C@]1(NC(=O)N(C)C)[C@@H](N)[C@H](Nc2cccc(C(F)(F)F)c2)[C@](O)(CO)[C@]1(C)O
II. CCN(CC)C(=O)N[C@@]1([C@H](C)O)[C@@H](N)[C@H](Nc2cccc(C(C)=O)c2)[C@](O)(CO)[C@]1(C)O
Input line: Consider entries I and II . Which has the numerically lower MIC? Record your answer as the label of the chosen record.
Output line: I

###

# System: Staphylococcus aureus
# Assay Comment: Antibacterial activity against Staphylococcus aureus ATCC 25923 after 20 hrs by broth microdilution method
# Type: functional
# Particulars: ATCC 25923, 20 h
Property Label: MIC (µg/mL)

> print(dat)
                                smiles.repr  property.label  result
1  CCN(CC)C(=O)N[C@@]1([C@H](C)O)[C@@H](N)[C@H](Nc2cccc(C(C)=O)c2)[C@](O)(CO)[C@]1(C)O             MIC       4

I. CC(=O)c1cccc(N[C@H]2[C@H](N)[C@@](NC(=O)N(C)C)([C@H](C)O)[C@@](C)(O)[C@@]2(O)COC(=O)c2c(C)cccc2O)c1
II. COc1cccc(N[C@H]2[C@H](N)[C@@](NC(=O)N(C)C)([C@H](C)O)[C@@](C)(O)[C@@]2(O)CO)c1
Input line: Consider entries I and II . Which has the numerically lower MIC? Record your answer as the label of the chosen record.
Output line: I

###

# System: Klebsiella pneumoniae
# Assay Comment: Antibacterial activity against Klebsiella pneumoniae ATCC 700603 after 20 hrs by broth microdilution method
# Assay type: functional
# Particulars: ATCC 700603, 20 h
Property Label: MIC (µg/mL)

A. CC(=O)c1cccc(N[C@H]2[C@H](N)[C@@](NC(=O)N3CCCC3)([C@H](C)O)[C@@](C)(O)[C@@]2(O)CO)c1
B. CC(=O)c1cccc(N[C@H]2[C@H](N)[C@@](NC(=O)N(C)C)([C@H](C)O)[C@@](C)(O)[C@@]2(O)CO)c1
Input line: Consider entries A and B . Which has the numerically lower MIC? Record your answer as the label of the chosen record.
Output line: B
(B: 8 µg/mL, A: 128 µg/mL)

Source: ChEMBL document CHEMBL2331463
